Biological target: 17β-hydroxysteroid dehydrogenase type 1 (17β-HSD type 1) (Homo sapiens, UniProt P14061)
Construct: expressed in transfected cells; host or cells: MCF-7
Sequence (P14061 1-328): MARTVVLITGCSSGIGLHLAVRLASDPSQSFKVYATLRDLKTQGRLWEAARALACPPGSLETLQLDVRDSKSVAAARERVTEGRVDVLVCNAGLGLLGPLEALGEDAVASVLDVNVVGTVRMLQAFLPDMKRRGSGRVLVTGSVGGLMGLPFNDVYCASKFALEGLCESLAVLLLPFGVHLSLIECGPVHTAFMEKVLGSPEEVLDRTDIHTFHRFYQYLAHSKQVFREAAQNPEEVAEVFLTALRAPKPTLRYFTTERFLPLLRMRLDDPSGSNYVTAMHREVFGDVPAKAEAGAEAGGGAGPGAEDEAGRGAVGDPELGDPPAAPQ
Assay: Inhibition of 17β-HSD type 1 in MCF-7 cells stably expressing the isoenzyme (tritium labeled estrone conversion, HPLC)
Assay type: cell-based
Details: MCF7; 10 μM test compound; MCF-7 cells expressing 17β-HSD type 1; 2 nM tritium labeled estrone; read-out: % Inhibition HSD1 10 μM
inhibition at 10 µM vs 40%: at or above is t, below is f.

Some solved entries appear below for comparison.
>>> discrete_label("COc1cc(-c2nc3sc4c(O)cccc4c3c(=O)n2CC(C)C)cc(OC)c1OC")
"t"
>>> discrete_label("O=c1c2c3c(sc2nc(-c2cc(O)c(O)c(O)c2)n1Cc1ccccc1)CCCC3")
"f"
>>> discrete_label("CCCc1nc2sc3c(c2c(=O)n1Cc1cc(Br)ccc1OC)CCC(Br)C3=O (centres unmarked)")
"t"

Reported inhibition at 10 µM at or above 40%? CCCCn1c(-c2cc(OC)c(OC)c(OC)c2Br)nc2sc3c(c2c1=O)CC(C)C(Br)C3=O (centres unmarked)
f

###

molecular target: 17β-hydroxysteroid dehydrogenase type 1 (17β-HSD type 1) (Homo sapiens, UniProt P14061); construct: expressed in transfected cells; host or cells: MCF-7; experiment: Inhibition of 17β-HSD type 1 in MCF-7 cells stably expressing the isoenzyme (tritium labeled estrone conversion, HPLC); type: cell-based; conditions: MCF7; 1 μM test compound; MCF-7 cells expressing 17β-HSD type 1; 2 nM tritium labeled estrone; read-out: % Inhibition HSD1 1 μM
observation.type: inhibition at 1 µM (%)
Supply the numeric figure in %, leaving out any unit text.

>>> observed_measurement("COCCn1c(-c2cc(OC)c(OC)c(OC)c2)nc2sc3c(c2c1=O)CCCC3=O")
-0.2
>>> observed_measurement("CC(=O)OCc1nc2sc3c(c2c(=O)n1Cc1ccccc1)CCCC3")
9

State its inhibition at 1 µM for this compound: COc1cc(-c2nc3sc4c(c3c(=O)n2-c2ccccc2)CCCC4=O)cc(OC)c1OC
14.2

State its inhibition at 1 µM for this compound: CCC(C)Cn1c(-c2cc(OC)c(OC)c(OC)c2)nc2sc3c(O)cccc3c2c1=O (stereo not drawn)
46.8

State its inhibition at 1 µM for this compound: COc1ccc(-c2nc3sc4c(c3c(=O)n2Cc2ccccc2)CCC(Br)(Br)C4=O)cc1
11.4

State its inhibition at 1 µM for this compound: COc1cc(-c2nc3sc4c(O)c(Br)ccc4c3c(=O)n2Cc2ccccc2)c(Br)c(OC)c1OC
4.7

State its inhibition at 1 µM for this compound: COc1cc(-c2nc3sc4c(c3c(=O)n2Cc2ccccc2)C(C)CCC4=O)cc(OC)c1OC (stereo not drawn)
24.6

State its inhibition at 1 µM for this compound: COc1cc(-c2nc3sc4c(c3c(=O)n2CC(C)C)CCC(Br)C4=O)cc(OC)c1OC (stereo not drawn)
22.9

State its inhibition at 1 µM for this compound: CCC(C)Cn1c(-c2cc(OC)c(OC)c(OC)c2Cl)nc2sc3c(c2c1=O)CCC(Cl)C3=O (stereo not drawn)
25

State its inhibition at 1 µM for this compound: COc1cc(-c2nc3sc4c(c3c(=O)n2CC(C)C)C(Br)CCC4=O)cc(OC)c1OC (stereo not drawn)
54

State its inhibition at 1 µM for this compound: CC(=O)OCc1nc2sc3c(c2c(=O)n1-c1ccccc1)CCCC3
21.1
